test system: Enterococcus faecalis; experiment: Antimicrobial activity against Enterococcus faecalis assessed as bacterial growth at 10.9 ug/ml after 20 hrs by microtiter plate assay; format: functional
Simple rule here: Activity less than 20% is yes (1), otherwise no (0).

Below are worked cases with known answers.
Prompt line: # check: Activity < 20% for `COc1ccccc1C1=C(Br)C(=O)O/C1=C\c1ccc(C(F)(F)F)cc1`
Response line: yes (1)

Prompt line: # check: Activity < 20% for `COc1cccc(/C=C2\OC(=O)C(Br)=C2c2cc(Cl)ccc2OC)c1`
Response line: yes (1)

Prompt line: # check: Activity < 20% for `COc1ccc(Br)cc1C1=C(Br)C(=O)O/C1=C\c1cccc(Cl)c1`
Response line: yes (1)

Prompt line: # check: Activity < 20% for `COc1ccc(Br)cc1C1=C(Br)C(=O)N(CC(C)C)/C1=C\c1ccc(Br)cc1`
Response line: no (0)

Next:
Prompt line: # check: Activity < 20% for COc1ccc(Br)cc1C1=C(Br)C(=O)N(CC(C)C)C1(O)Cc1cccc(Cl)c1 (stereo not given)
Response line: yes (1)

Prompt line: # check: Activity < 20% for `COc1ccc(C)cc1C1=C(Br)C(=O)N(CC(C)C)/C1=C/c1ccccc1Cl`
Response line: no (0)

Prompt line: # check: Activity < 20% for `COc1ccc(C)cc1C1=C(Br)C(=O)O/C1=C\c1cccc(Cl)c1`
Response line: yes (1)

Prompt line: # check: Activity < 20% for `COc1ccccc1C1=C(Br)C(=O)N(CC(C)C)/C1=C/c1ccc(C(F)(F)F)cc1`
Response line: yes (1)

---

tested on: Enterococcus faecalis; assay: Antimicrobial activity against Enterococcus faecalis assessed as inhibition of biofilm formation after 20 hrs by crystal violet staining analysis; format: functional, organism-based
Reported values of IC50 for individual entries
Your answer is read as µg/mL, so omit the unit and give the number.

Prompt line: Recall and state the measured IC50 for `COc1ccc(Cl)cc1C1=C(Br)C(=O)N(CC(C)C)/C1=C\c1ccccc1Br` .
Response line: 1.48

Prompt line: Recall and state the measured IC50 for `COc1ccc(C)cc1C1=C(Br)C(=O)N(CC(C)C)/C1=C/c1ccccc1Cl` .
Response line: 1.04

Next:
Prompt line: Recall and state the measured IC50 for `COc1ccc(Br)cc1C1=C(Br)C(=O)N(CC(C)C)/C1=C\c1cccc(Cl)c1` .
Response line: 3.31

Prompt line: Recall and state the measured IC50 for `COc1ccc(Br)cc1C1=C(Br)C(=O)O/C1=C\c1cccc(Cl)c1` .
Response line: 6.91

Prompt line: Recall and state the measured IC50 for `COc1ccc(Br)cc1C1=C(Br)C(=O)N(CC(C)C)/C1=C/c1cccc(Cl)c1` .
Response line: 3.46

Prompt line: Recall and state the measured IC50 for `COc1cccc(/C=C2\C(c3cc(Cl)ccc3OC)=C(Br)C(=O)N2CC(C)C)c1` .
Response line: 3.26

Prompt line: Recall and state the measured IC50 for `COc1cccc(/C=C2\OC(=O)C(Br)=C2c2cc(Cl)ccc2OC)c1` .
Response line: 53.1

Prompt line: Recall and state the measured IC50 for `COc1ccccc1C1=C(Br)C(=O)N(CC(C)C)/C1=C\c1ccc(C(F)(F)F)cc1` .
Response line: 12

Prompt line: Recall and state the measured IC50 for `COc1ccc(Cl)cc1C1=C(Br)C(=O)N(CC(C)C)/C1=C/c1ccccc1Br` .
Response line: 0.76

Prompt line: Recall and state the measured IC50 for `COc1ccc(C)cc1C1=C(Br)C(=O)N(CC(C)C)/C1=C\c1ccccc1Cl` .
Response line: 1.09

Prompt line: Recall and state the measured IC50 for COc1ccc(C)cc1C1=C(Br)C(=O)N(CC(C)C)C1(O)Cc1ccccc1Cl (stereo not given) .
Response line: 1.07

Prompt line: Recall and state the measured IC50 for `COc1ccc(C)cc1C1=C(Br)C(=O)N(CC(C)C)/C1=C\c1cccc(Cl)c1` .
Response line: 62.6

Prompt line: Recall and state the measured IC50 for `COc1cccc(/C=C2/C(c3cc(Cl)ccc3OC)=C(Br)C(=O)N2CC(C)C)c1` .
Response line: 1.46

Prompt line: Recall and state the measured IC50 for `COc1ccc(Br)cc1C1=C(Br)C(=O)N(CC(C)C)/C1=C\c1ccc(Br)cc1` .
Response line: 6.62
